Test system: OVCAR-5 ovarian
Assay: NCI tumour cell line growth inhibition, 48 h
endpoint.label: TGI

Notebook: CCCCCC/C=C\CCCCCCCCCc1cccc(OC)c1O , TGI read as > 100 µM

TGI reading for CC/C(=N/O)C(C)C(=O)CCC(=O)Nc1ccc(Cl)cc1 (configuration not stated) : > 100 µM

get_value(item= NC(=S)N/N=C1/C(=O)N(c2ccccc2)C(=O)C1C(=O)Nc1ccccc1 (configuration not stated) , readout=TGI) returns > 100 µM

Reported TGI of Nc1ccccc1-n1c2c(c3ccccc3c1=O)C(=O)c1ccccc1-2 : > 100 µM

Briefly, TGI measured for COc1ccc(/C=C\c2cc(OC)c(OC)c(OC)c2)cc1N/C=C\C(=O)c1c[nH]c2ccccc12 : > 100 µM

Sure, the documented TGI for C[C@]12O[C@@]3(C)O[C@@]3(C)[C@]3(C)O[C@]3(C)[C@@]1(C)O2 is > 100 µM

Entry O=C(Cc1ccccc1)N/N=C(/c1nc2ccc([N+](=O)[O-])cc2[nH]c1=O)C(O)c1ccco1 (configuration not stated) — recorded TGI = > 100 µM

Recorded result, COc1ccc(/C=N/C2=NNC(C)(c3ccccc3O)N2C(Cc2c[nH]c3ccccc23)C(=O)O)cc1 (configuration not stated) , TGI: 19 µM

Lab book: TGI of O=C(Cc1ccc(-c2ccc(OCCN3CCOCC3)cc2)cn1)NCc1ccccc1 noted as > 100 µM

// sample CN(C)c1cccc2c(S(=O)(=O)NCCCNCCN)cccc12 , its TGI was > 100 µM

Measured TGI of CN(CCCNC(=O)c1nn(-c2ccccc2)c2c1Cc1ccccc1-2)CCCNC(=O)c1nn(-c2ccccc2)c2c1Cc1ccccc1-2 : 3.26 µM

Lookup result for CCN(CC)CCOc1ccccc1-n1c(C)ccc1-c1ccccc1 ; measured TGI: 30.1 µM

Recorded TGI (compound CC(NC(=O)c1ccc(OP(=O)(OCc2ccc([N+](=O)[O-])o2)N(C)CCCCCl)cc1)c1ccc(OCC2CCCCC2)c(C(N)=O)c1 (configuration not stated) ): > 47.6 µM

TGI reported for this compound O=C(CC(=O)c1cccc2ccccc12)C(=O)Nc1nccs1 : > 100 µM

Looking up Nc1csc(-c2scc3c2OCCO3)c1N , I see its TGI listed as 39.9 µM

Consider N#Cc1n[nH]n(-c2ccccc2)c1=O . Its measured TGI is > 100 µM

Form: compound = Oc1cc(F)cc2cccnc12 ; TGI = > 100 µM

Value of TGI reported for the compound COc1ccc(-c2n[nH]c3nc4ccccc4n3c2=O)cc1 is > 100 µM

Please fill in: TGI reported for N#CCc1nc(-c2cc3ccc(O)cc3oc2=O)cs1 = > 100 µM

Data point: O=S(C(c1ccccc1)=P(c1ccccc1)(c1ccccc1)c1ccccc1)c1ccc(Cl)cc1 (configuration not stated) ; TGI = > 100 µM

What the record says about COC(=O)C1OC(SCCN)C(O)C(O)C1O (configuration not stated) : TGI is > 100 µM

Lab note: measured TGI of COc1ccccc1C(=O)Nc1ccc(Cl)c(C(=O)OC(C)C)c1 was > 83.4 µM

// TGI value for O=C1c2ccccc2-c2c1c1ccc3ccccc3c1n2-c1ccccc1 : > 100 µM

TGI for CC(C)C(=O)/C=C/c1ccc(Cl)cc1Cl is 30.7 µM

// Oc1ccc(Cl)cc1C1=Nn2c(COc3ccc4c(c3)CCCC4)nnc2SC1 : TGI value = 34.6 µM

The reported value for COc1ccc(/C=N/NC(=O)CSc2nc(-c3ccccc3)c(-c3ccccc3)[nH]2)cc1OC in terms of TGI is 64 µM

Short answer for O=CCC(O)C(O)C(O)CO (configuration not stated) : TGI was > 100 µM

Field TGI (entry Cc1c(-c2cc(-c3ccccc3)n[nH]c2=O)c2ccccc2n1C ) reads > 100 µM

Entry FC(F)(F)c1nc2c(ccc3[nH]c4c(-c5ccccc5)nccc4c32)[nH]1 — recorded TGI = > 100 µM

TGI recorded for this compound, Cc1cc(=O)[nH]c(Sc2ccc([N+](=O)[O-])cc2[N+](=O)[O-])n1 , is 35.2 µM

Value of TGI reported for the compound Cc1nc2sc(C(=O)Nc3cccc(Cl)c3C)c(N)c2cc1C(O)c1ccccc1 (configuration not stated) is 46.5 µM

So, COc1cc2c3c(n(CCCN=[N+]=[N-])c(=O)c2cc1OC)-c1ccc(NC(C)=O)cc1C3=O ? Its TGI was > 50 µM

Noted for O=C1CNc2cc(N3CCCCC3)ccc2N1 : its TGI reads > 100 µM

Recorded TGI (compound Cc1ccc(S(=O)(=O)Nc2cc(=O)[nH]c3c2CCC3)cc1 ): > 100 µM

The recorded TGI for entry O=C(Oc1c(Cl)c(Cl)c(Cl)c(Cl)c1Cl)C1CCCN1C(=O)OCc1ccccc1 (configuration not stated) equals 17.1 µM

So, NC1=C(/C(N)=N/O)C(c2ccccc2)c2ccc3ccccc3c2O1 (configuration not stated) ? Its TGI was > 100 µM

Reported TGI ( CN(C(=O)C12C3(C(=O)O)C4C5(C(=O)O)C3C1(C(=O)O)C5C42C(=O)O)C(C)(C)C (configuration not stated) ) = > 100 µM

For record NC(=S)N/N=C(/CCN1CCCC1)CC(C1=C(O)C2=CCCCC2OC1=O)c1ccccc1 (configuration not stated) the listed TGI is > 100 µM

Input CC(=S)NC=C(C(N)=O)C(N)=O . Output TGI: > 100 µM

The reported TGI of the compound CCCCc1n(Cc2ccc3ccccc3n2)cc[n+]1Cc1ccc2ccccc2c1 was 8.48 µM

Short answer for CN(CCN1C(=O)c2cccc3cccc(c23)C1=O)CCN1C(=O)c2cccc3cccc(c23)C1=O : TGI was > 100 µM

Please fill in: TGI reported for CCOC(=O)/C(=C/c1ccccc1)N(CC)CC = > 100 µM

----------
Test system: K-562 leukemia
Assay: NCI tumour cell line growth inhibition, 48 h
Assign GI50 to each entry below.

Query COc1ncc(-c2ccc3ncnc(Nc4cccc(Cl)c4)c3c2)cc1NS(C)(=O)=O yields GI50 of 4.51 µM

Value of measured GI50 for the entry COc1cc(-c2cn(-c3ccc(F)cc3)c(=O)[nH]2)cc(OC)c1OC : > 100 µM

O=C1c2ccccc2-c2c1c1ccc([N+](=O)[O-])cc1c(=O)n2CCN1CCOCC1 has a reported GI50 of > 100 µM

----------
Tested on: SK-OV-3 ovarian
Test: NCI tumour cell line growth inhibition, 48 h
Exercise: state measured TGI for each of the molecules provided.

The recorded TGI for entry O=C(c1ccccc1)N1CCC(Nc2cccnc2)O1 (stereo not given) equals > 100 µM

The recorded TGI for entry Nc1n[nH]c2cc(F)c([C@@H]3Nc4c(F)cc5[nH]ncc5c4[C@H]4C5CCC(C5)[C@@H]34)cc12 (stereo not given in full) equals 20.7 µM

For reference, reported TGI for CC1=C(C(=O)NCc2ccccc2)C(c2ccc(N(C)C)cc2)C(C(=O)NCc2ccccc2)=C(C)N1 stands at > 100 µM

Entry CS(=O)(=O)Nc1ccc(NCc2cnc3ccc4[nH]cccc4c23)cc1 ; TGI = > 100 µM

Looking up CCN1Cc2c(/C=C/c3ccccc3)nc3ccc(OC)cc3c2N(c2cccc(Cl)c2)C1 , I see its TGI listed as 4.4 µM

What the record says about CC(O)/C=C/C1OC(=O)CC1Nc1ccc(C=O)cc1 (stereo not given) : TGI is > 100 µM

Recorded TGI (molecule O=CCC(O)C(O)C(O)CO (stereo not given) ): > 100 µM

Given item N#CC(C#N)=C(N)/C(C#N)=C/c1ccc(O)c(O)c1 , the value recorded as its TGI is > 100 µM

For CN(CCCNC(=O)c1nn(-c2ccccc2)c2c1Cc1ccccc1-2)CCCNC(=O)c1nn(-c2ccccc2)c2c1Cc1ccccc1-2 the molecule record lists TGI as 3.23 µM

The reported TGI of the molecule COc1cccc(C=C(C#N)C#N)c1OC was > 100 µM

----------
Consider the following compounds; for each one, report its TGI.
Test system: RXF 393 renal
Assay: NCI tumour cell line growth inhibition, 48 h
Where a SMILES comes first, the peptide text is derived from it. [ ]: non-standard residue; d: D form. The star is where a group is joined. Hyp = O=C(O)[CH]1C[CH](O)CN1; Cbz = O=C(OCc1ccccc1)*

get_value(item= COc1cc2cc[n+](C)c(Cc3ccc(Oc4cc(Cc5c6cc(OC)c(OC)cc6cc[n+]5C)ccc4OC)cc3)c2cc1OC , readout=TGI) returns > 100 µM

Entry under test: NC(=O)CNC(=O)C1CC(O)CN1C(=O)C1CCCN1C(=O)OCc1ccccc1 (stereo not drawn) (Cbz-Pro-[Hyp]-Gly-NH2; configuration not given here) . Its TGI was > 100 µM

# TGI (compound: CCOc1cc(CCNC)c2c(ccc3ccc(OC)c(O)c32)c1OC ) is 31.5 µM

Reported TGI for CC1=CC[C@@H]2C(=O)C=CC=C[C@H]12.[C-]#[O+].[C-]#[O+].[C-]#[O+].[Fe] was > 100 µM

Record CC(=O)OCc1ncccc1C(OC(C)=O)OC(C)=O . Reported TGI: > 100 µM

Per the records, this compound ( Cn1c(=O)c2[nH]c(CCS)nc2n(C)c1=O ) has TGI equal to > 100 µM

Recorded TGI (compound COC(=O)c1ccc(N/C=C(/C#N)c2ccsc2)cc1 ): 23.9 µM

Lab note: measured TGI of CC(C)CCCC(C)[C@H]1CCC2C3CC=C4C[C@@H](OC(=O)CC(CC(=O)[O-])C(=O)[O-])CC[C@]4(C)C3CC[C@@]21C.N.N.[Pt+4] (stereo not given in full) was > 100 µM

TGI reported for this compound COc1ccc([C@H]2[C@@H]3CCc4ccccc4C3=NN2C(N)=S)cc1OC : > 100 µM

// field: TGI; key: Fc1c(F)c(F)c(CSc2nc3ccccc3[nH]2)c(F)c1F ; value = > 100 µM

CC(NC(=O)c1ccc(OP(=O)(OCc2ccc([N+](=O)[O-])o2)N(C)CCCCCl)cc1)c1ccc(OCC2CCCCC2)c(C(N)=O)c1 (stereo not given) has a reported TGI of 9.25 µM

# TGI (compound: O=C1c2ccccc2C(=O)c2c1sc1nc3ccccc3n21 ) is 3.31 µM

Reported TGI for O[C@]12c3ccccc3C1CCCC2N1CCOCC1 (stereo not given in full) was > 100 µM

Query COc1ccccc1C(=O)Nc1ccc(Cl)c(C(=O)OC(C)C)c1 yields TGI of > 100 µM

Briefly, TGI measured for O=C1c2ccccc2-c2c1c1ccc3ccccc3c1n2-c1ccccc1 : 52.1 µM

# compound COc1ccc(-n2nc(C(=O)c3ccccc3)c3nn4c(=O)cc(-c5ccccc5)nc4nc32)cc1 ; its TGI = > 100 µM

Reported TGI ( CC(=S)NC=C(C(N)=O)C(N)=O ) = > 100 µM

Just so you know, measured TGI for C=CC(=O)OCCCS(=O)(=O)[O-].C=CC(=O)OCCCS(=O)(=O)[O-].NC1CCCCC1N.[Pt+4] came out at > 25 µM

Nc1csc(-c2scc3c2OCCO3)c1N has a reported TGI of 56.1 µM

The measured TGI associated with Cc1c2ccccc2cc2cccc[n+]12 reads > 100 µM

TGI reading for C=CCc1cccc(/C(O)=C/C(=O)/C=C/c2ccccc2Cl)c1O : 75.8 µM

Input CCCCCCCCCCCc1cc(=O)c2c(O)cccc2o1 . Output TGI: > 100 µM

Query CC(NNC(=S)N1CCN(c2ccccn2)CC1)c1cccc[n+]1[O-] (stereo not given) yields TGI of > 100 µM

Lab note: N#CC1=C(N)Oc2c(ccc3cccnc23)C1c1ccccc1 (stereo not given) gave TGI of > 30.7 µM

So, COc1ccccc1NC(=O)C1=C(C)NC(C)=C(C(=O)Nc2ccccc2OC)C1c1ccc(C2C(C(=O)Nc3ccccc3OC)=C(C)NC(C)=C2C(=O)Nc2ccccc2OC)cc1 ? Its TGI was 5.06 µM

So for COc1cc(S(=O)(=O)Nc2ccc(-c3csc(/N=C\c4cccc(Oc5ccccc5)c4)n3)cc2)ccc1Cl , the logged TGI turned out to be 49.4 µM

The reported value for CC(=O)NC(CCCCN(Cc1ccccc1)C(=O)N(C)N=O)C(=O)NCc1ccccc1 (stereo not given) in terms of TGI is > 100 µM

The reported value for CN(CCN1C(=O)c2cccc3cccc(c23)C1=O)CCN1C(=O)c2cccc3cccc(c23)C1=O in terms of TGI is 76.9 µM

Lab note: measured TGI of COC(=O)C(Br)(C(=O)OC)C(Br)C(Br)C(Br)c1ccccc1 (stereo not given) was 3.26 µM

The recorded TGI for entry [N-]=[N+]=Nc1nnc(CCCCc2nnc(N=[N+]=[N-])o2)o1 equals > 100 µM

The reported TGI of the compound COc1ccc(C(=O)c2cc(C)c(OC)c(C)c2)c(OC)c1OC(=O)C(Cl)Cl was > 100 µM

Measured TGI of CCOc1cc2cnc3c4cc(OC)c(OC)cc4ccc3c2cc1OC : > 100 µM

Form field TGI, entry CN(C)C(=S)/N=C(\N)N(C)C : > 100 µM

Given item COc1ccc2c3c([nH]c2c1)[C@H](C=C(C)C)N1C(=O)[C@@H]2CCCN2C(=O)[C@@H]1C3 , the value recorded as its TGI is > 100 µM

For record Nc1ncc(-c2ccc3ncnc(N4CCc5cc(F)c(Cl)cc54)c3c2)cc1C(F)(F)F the listed TGI is 1.53 µM

Value of TGI reported for the compound CCC1C[N+]2=C(c3cc(OC)c(OC)cc3CC2)c2c1cc1n2CCc2cc(OC)c(OC)cc2-1 (stereo not given) is 15.5 µM

Form: compound = N#CC(C#N)[C@@H]1CCC=C(Sc2ccccc2)[C@H]1Sc1ccccc1 ; TGI = 4.84 µM

The recorded TGI for entry N#CC(C#N)=C(N)/C(C#N)=C/c1ccc(O)c(O)c1 equals > 100 µM

The recorded TGI for Cc1ccc(S(=O)(=O)Nc2cc(=O)[nH]c3c2CCC3)cc1 is > 100 µM

Lab book: TGI of CCC1=C(CC2NCCc3cc(OC)c(OC)cc32)CC2c3ccccc3CCN2C1 (stereo not given) noted as > 100 µM

These data points were gathered from PubChem BioAssay (NCI).
